- test_protocol: protease stability score; higher = more stable; yeast display proteolysis, trypsin and chymotrypsin;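 also: relative to predicted unfolded state with 0 unfolded-like and 1 meaning tenfold more protease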

{"record_sequence": "DEEHEMIQTHLRLFHEALLTGDEEELHRLLDPNVRVDIGDKHLHGREVVIHWMRQIRVKHLDLDLDHERSVNGRVDIKGTLRSDVIINGQRHKTSHTLHFHATKINGRWFIKEYIVD", "protease stability score": 2.06}
{"record_sequence": "HEEEKIIEEASKRWLELMQTGDEDKVLHYLDPEYRSEWDGVEIHGRETFRKWLLDLLRKFKGLRFEFRDVRDVGDKVRIIGTVTYDGKVRDTRIDVVIVNGRYKSMEIHFN", "protease stability score": 1.69}
{"record_sequence": "EEEKEHAREIVDILWELHETGDEEIFRTLADPDVRLLIGDKKIVGREEIWRKLKEVHKHWRLKSYHTRHLHVQGEKVTIDGVINGVYDGVDTSIDVNIQIFTFNGRFRSMREHYS", "protease stability score": 0.317}
{"record_sequence": "EEDREHAREILRQLHHWFMTGDEEKWSKLMDPDARHHIHVGDKHSEYHGREEVIRFLRELIRHWRIDEVRIRRLHSIDGRVHSDIIVDGQVDGRHDRRDYELRVSVVDGRLKEVTIIVH", "protease stability score": 1.07}
{"record_sequence": "SDLHRDIQRLLEQVLRSRETGDEDHLEKYADPHARSVFDGVEFHGWEELLRVIRHIRIRRLRLTHIEVQGDKVELDLELDGEINGQRVRVHLEIHSEKINGRWIMTEVVIE", "protease stability score": 1.21}
{"record_sequence": "SEDDEKLEQIIELLDKVMKTGDERAYNELMDPNTRYQVGDKEFHGMEWWSEIYSRHEKKLGIEKVEVDIENHHVQGDKVTVHGRVNINGREHEYRFVLTKVDGQWRLREENIK", "protease stability score": 1.15}
